Recorded Plant response rating, Corn for the following compounds
tested on: corn (Zea mays); test: Test B pre-/postemergence plant response; format: in vivo; conditions: Postemergence, 125 g ai/ha; visual rating after 13 to 15 days, scale 0 (no effect) to 100 (complete control)
OUTCOME MEASURE: Plant response rating, Corn

COMPOUND | MEASURED RESULT
Cc1cc(F)ccc1-n1c(-c2ccccc2)ncc(C(=O)C2=C(O)CCCC2=O)c1=O [Compound 48] | 85
O=C1CCCC([O-])=C1C(=O)c1cnc(-c2ccccc2)n(-c2ccccc2)c1=O.[K+] [Compound 14] | 45
Cc1cccc(-n2c(-c3ccccc3)ncc(C(=O)C3=C(O)CCCC3=O)c2=O)c1C [Compound 27] | 50
O=C1CCCC(O)=C1C(=O)c1cnc(-c2ccccc2)n(-c2ccc(F)cc2)c1=O [Compound 24] | 85

---

In this section, each of the compounds is paired with its reported Plant response rating, Ducksalad.
Tested on: ducksalad (Heteranthera limosa)
Assay: Test B flooded paddy test
Type: in vivo
Conditions: Flood (flooded paddy test), 62 g ai/ha; scale of 0 to 100 where 0 is no effect and 100 is complete control; 13 to 15 days
Excerpt: Plant species in the flooded paddy test consisted of rice (Oryza sativa), umbrella sedge (Cyperus difformis), ducksalad (Heteranthera limosa) and barnyardgrass (Echinochloa crus-galli) grown to the 2-leaf stage for testing. […] Treated plants and controls were maintained in a greenhouse for 13 to 15 days, after which time all treated plants were visually evaluated and compared to controls. […]
OUTCOME MEASURE: Plant response rating, Ducksalad

COMPOUND | MEASURED RESULT
O=C(C1=C(O)C2CCC(C2)C1=O)c1cnc(-c2cc(F)cc(F)c2)n(-c2ccccc2)c1=O (centres unmarked) | 100
COCCOCCn1c(-c2ccccc2)ncc(C(=O)C2=C(O)CCCC2=O)c1=O | 90
CCn1c(-c2cccc(F)c2)ncc(C(=O)C2=C(O)CCCC2=O)c1=O | 0
O=C1CCCC(O)=C1C(=O)c1cnc(-c2ccc(F)c(F)c2)n(C2CCCCC2)c1=O | 50
CCCn1c(-c2ccccc2)ncc(C(=O)C2=C(O)C3CCC(C3)C2=O)c1=O (centres unmarked) | 0
Cc1ccc(Cl)cc1-n1c(-c2cccc(Cl)c2)ncc(C(=O)C2=C(O)CCCC2=O)c1=O | 90
O=C1CCCC(O)=C1C(=O)c1cnc(-c2ccsc2)n(C2CCOCC2)c1=O | 90
COCCn1c(-c2cccs2)ncc(C(=O)C2=C(O)CCCC2=O)c1=O | 50
Cc1cccc(-c2ncc(C(=O)C3=C(O)CCCC3=O)c(=O)n2-c2cc(F)ccc2C)c1 | 75
Cc1ccc(F)c(-n2c(-c3ccccc3)ncc(C(=O)C3=C(O)CCCC3=O)c2=O)c1 | 30
CC(C)c1ncc(C(=O)C2=C(O)CCCC2=O)c(=O)n1-c1ccccc1 | 0
COc1ccc(-n2c(-c3cccc(Cl)c3)ncc(C(=O)C3=C(O)CCCC3=O)c2=O)cc1 | 80
O=C1CCCC(O)=C1C(=O)c1cnc(-c2ccccc2)n(C2CCOCC2)c1=O | 90
O=C1CCCC(O)=C1C(=O)c1cnc(-c2cccs2)n(CC2CCCO2)c1=O (centres unmarked) | 60
O=C1CCCC(O)=C1C(=O)c1cnc(-c2ccsc2)n(CC2CCCO2)c1=O (centres unmarked) | 0
CCCCn1c(CCC)ncc(C(=O)C2=C(O)CCCC2=O)c1=O | 30
O=C1CCCC(O)=C1C(=O)c1cnc(C2CCC2)n(-c2ccccc2)c1=O | 65
